Data provenance: paper PMC9776381

- target.or.system: SERCA2a (cardiac SR vesicles) (Sus scrofa)
- Construct: Cardiac SR vesicles were isolated from fresh porcine left ventricular tissue; from tissue; host or cells: porcine left ventricular tissue, cardiac SR vesicles
- method.description: Oxalate-supported Ca2+-uptake assay, cardiac SR (CRC at pCa 5.4)
- Type: biochemical, porcine
- condition.label: maximal effect of CRC, pCa 5.4, mean ± SD, n = 3; dash = no observable effect
readout.label: Cardiac SR Ca^2+ Uptake Activity Percent Increase (%)

CCOC(=O)C1(Cc2cccc(C(F)(F)F)c2)CCN(C(=O)c2sccc2C)CC1 [Compound 8] | 18

(A) CCCSCC(=O)N(Cc1ccc(C)s1)C1CCCC1 [Compound 3]
(B) CCCN(Cc1ccccc1OC)C(=O)c1cc(C)c(C)s1 [Compound 4]
(C) COc1ccc(CCNC(=O)c2oc3c(Cl)cc(C)cc3c2C)cc1 [Compound 16]
Order the entries by their reported Cardiac SR Ca^2+ Uptake Activity Percent Increase, beginning at the minimum. State the ranking by listing the labels in the requested order. C, B, A
(C: −27%, B: 24%, A: 37%)

###

- target.or.system: SERCA1a (skeletal SR vesicles) (Oryctolagus cuniculus, UniProt P04191)
- Construct: rabbit muscles were freshly harvested from the back and hind leg of New Zealand White rabbits and purified using a sucrose gradient
- Sequence (P04191 1-994 isoform P04191-2): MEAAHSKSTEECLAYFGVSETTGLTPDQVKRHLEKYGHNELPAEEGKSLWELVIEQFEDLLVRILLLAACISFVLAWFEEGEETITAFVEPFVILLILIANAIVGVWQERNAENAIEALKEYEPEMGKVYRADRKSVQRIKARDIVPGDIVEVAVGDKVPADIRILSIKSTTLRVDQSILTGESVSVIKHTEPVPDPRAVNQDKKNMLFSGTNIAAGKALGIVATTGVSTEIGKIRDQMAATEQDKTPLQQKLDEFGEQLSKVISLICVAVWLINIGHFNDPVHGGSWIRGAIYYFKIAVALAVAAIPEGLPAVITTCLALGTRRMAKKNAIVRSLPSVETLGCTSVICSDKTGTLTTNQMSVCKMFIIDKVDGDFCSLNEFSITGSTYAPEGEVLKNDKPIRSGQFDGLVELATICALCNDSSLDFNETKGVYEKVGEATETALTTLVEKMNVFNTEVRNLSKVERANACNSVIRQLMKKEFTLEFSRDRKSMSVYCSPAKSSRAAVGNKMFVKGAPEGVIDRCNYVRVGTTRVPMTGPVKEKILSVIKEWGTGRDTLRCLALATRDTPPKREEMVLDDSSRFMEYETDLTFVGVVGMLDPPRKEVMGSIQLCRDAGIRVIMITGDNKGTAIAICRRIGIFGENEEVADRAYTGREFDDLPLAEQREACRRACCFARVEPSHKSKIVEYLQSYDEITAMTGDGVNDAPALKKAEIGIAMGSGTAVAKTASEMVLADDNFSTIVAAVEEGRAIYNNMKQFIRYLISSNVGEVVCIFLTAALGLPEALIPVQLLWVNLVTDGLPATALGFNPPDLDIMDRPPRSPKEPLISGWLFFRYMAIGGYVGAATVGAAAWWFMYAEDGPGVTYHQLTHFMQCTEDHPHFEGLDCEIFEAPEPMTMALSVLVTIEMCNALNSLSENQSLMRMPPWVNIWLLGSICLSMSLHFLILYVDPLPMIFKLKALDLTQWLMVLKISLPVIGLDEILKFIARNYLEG
- method.description: Oxalate-supported Ca2+-uptake assay, skeletal SR (CRC at pCa 5.4)
- condition.label: pCa 5.4, mean ± SD, n = 3; dash = no observable effect; read-out: Skeletal SR Ca^2+ Uptake Activity EC50
pEC50: −log10 of the molar value.
readout.label: pEC50

Examples with their reported pEC50 follow.
OCc1ccccc1-c1ccc(-c2nc(CCc3ccccc3)no2)cn1 | 5.74
CCCSCC(=O)N(Cc1ccc(C)s1)C1CCCC1 | 5.47
COc1ncc(CN(Cc2sccc2C)CC(C)C)cn1 | 5.66
CCCN(Cc1ccccc1OC)C(=O)c1cc(C)c(C)s1 | 5.85

(a) COc1ccc(CCNC(=O)c2oc3c(Cl)cc(C)cc3c2C)cc1
(b) CN(Cc1ccccc1)c1ncccc1CNc1ncccc1Cl
(c) CCCCN(Cc1ccsc1)C(=O)c1occc1C
(d) Fc1ccc(N2CCCN(Cc3nc(C(c4ccccc4)c4ccccc4)no3)CC2)cc1
(e) CCC(C)N(Cc1ccc(C)cc1)Cc1nccs1 (stereo not shown)
Sort these molecules on pEC50 so the largest reading comes first. State the ranking by listing the labels in the requested order. d, b, c, a, e
(d: 6.22, b: 5.96, c: 5.40, a: 5.15, e: 4.55)

###

- target.or.system: SERCA2a (cardiac SR vesicles) (Sus scrofa, UniProt P11607)
- Construct: Cardiac SR vesicles were isolated from fresh porcine left ventricular tissue; from tissue; host or cells: porcine left ventricular tissue, cardiac SR vesicles
- Sequence (P11607 1-997 isoform P11607-2): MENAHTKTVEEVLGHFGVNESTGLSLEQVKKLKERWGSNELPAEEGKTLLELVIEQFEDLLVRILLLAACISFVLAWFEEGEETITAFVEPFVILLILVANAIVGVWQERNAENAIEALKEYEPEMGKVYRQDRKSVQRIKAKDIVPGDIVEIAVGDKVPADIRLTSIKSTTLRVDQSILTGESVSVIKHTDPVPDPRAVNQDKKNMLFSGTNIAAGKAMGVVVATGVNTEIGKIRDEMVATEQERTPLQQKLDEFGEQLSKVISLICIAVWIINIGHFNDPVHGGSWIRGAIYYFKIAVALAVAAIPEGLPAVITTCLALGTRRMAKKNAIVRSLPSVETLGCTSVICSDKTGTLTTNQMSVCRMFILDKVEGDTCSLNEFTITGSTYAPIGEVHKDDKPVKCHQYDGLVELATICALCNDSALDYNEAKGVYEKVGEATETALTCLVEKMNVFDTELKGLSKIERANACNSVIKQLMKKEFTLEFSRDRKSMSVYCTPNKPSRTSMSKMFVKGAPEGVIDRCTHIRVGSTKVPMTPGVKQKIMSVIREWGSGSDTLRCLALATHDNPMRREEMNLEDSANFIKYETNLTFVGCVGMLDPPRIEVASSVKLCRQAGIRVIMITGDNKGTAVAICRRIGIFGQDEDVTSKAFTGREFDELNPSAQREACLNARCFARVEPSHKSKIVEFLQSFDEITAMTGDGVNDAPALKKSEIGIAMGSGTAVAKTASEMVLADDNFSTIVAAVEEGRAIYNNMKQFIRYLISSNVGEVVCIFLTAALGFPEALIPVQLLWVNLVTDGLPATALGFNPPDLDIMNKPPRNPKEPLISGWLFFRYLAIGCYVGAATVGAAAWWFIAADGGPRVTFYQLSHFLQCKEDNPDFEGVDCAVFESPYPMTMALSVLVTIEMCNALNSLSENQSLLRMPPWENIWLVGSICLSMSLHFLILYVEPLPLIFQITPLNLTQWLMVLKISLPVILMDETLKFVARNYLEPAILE
- method.description: NADH-coupled Ca-ATPase activity assay, cardiac SR (CRC at pCa 5.4)
- Format: biochemical, porcine
- condition.label: pCa 5.4, mean ± SD, n = 3
readout.label: EC50 (µM)

OCc1ccccc1-c1ccc(-c2nc(CCc3ccccc3)no2)cn1 [Compound 19] | 6.3
Cc1ccsc1CN(C)C(=O)CC(c1ccccc1)c1ccc2c(c1)OCO2 (centres unmarked) [Compound 11] | 6.4

(P) C=CCN(Cc1ccccc1OCC)C(=O)C1CCC1 [Compound 5]
(Q) COc1cccc(-c2nn(-c3ccccc3)cc2CN(Cc2c(C)nn(C)c2C)C2CC2)c1 [Compound 18]
(R) Fc1ccc(N2CCCN(Cc3nc(C(c4ccccc4)c4ccccc4)no3)CC2)cc1 [Compound 12]
Order the entries by their reported EC50, beginning at the minimum. State the ranking by listing the labels in the requested order. R, Q, P
